The origin of these recorded values is PubChem BioAssay AID1578.

- MEASUREMENT DESCRIPTION: NOD1 signaling inhibitors, primary screen, cell-based, luminescence, uHTS (AID 1578);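 note: HEK-293T reporter cells stimulated with the NOD1 agonist gamma-tri-DAP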
- TEST SETTINGS: NOD1-driven NF-kB luciferase reporter cells, at 4 µM, hits give high values
Screen size: about 290,000 compounds; about 3,000 (1%) were called active. The entries come from a sample that favours actives as a whole.
QUANTITY MEASURED: inhibition (%)

- QUERY SMILES: "COc1ccc(CCNC(=O)c2ccc(-c3ccc([N+](=O)[O-])cc3Cl)o2)cc1"
  QUANTITY MEASURED: "inhibition"
  VALUE: 4.2
- QUERY SMILES: "COc1ccc2c(c1)c(CC(=O)Nc1ccc(C)cc1)c(C)n2C(=O)c1ccc(Cl)cc1"
  QUANTITY MEASURED: "inhibition"
  VALUE: 24.5
- QUERY SMILES: "O=C(COC(=O)CNS(=O)(=O)c1ccccc1)Nc1ccc(Cl)cn1"
  QUANTITY MEASURED: "inhibition"
  VALUE: -21
- QUERY SMILES: "CCc1ccc(-n2cccc2/C=C2/C(=N)N3C(=NC2=O)SN=C3S(C)(=O)=O)cc1"
  QUANTITY MEASURED: "inhibition"
  VALUE: 1.2
- QUERY SMILES: "CN(Cc1ccc2nonc2c1)Cc1nc(Cc2cccc(F)c2)no1"
  QUANTITY MEASURED: "inhibition"
  VALUE: -14.8

###

- MEASUREMENT DESCRIPTION: NOD1 signaling inhibitors, primary screen, cell-based, luminescence, uHTS (AID 1578);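 note: HEK-293T reporter cells stimulated with the NOD1 agonist gamma-tri-DAP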
- TEST SETTINGS: NOD1-driven NF-kB luciferase reporter cells, at 4 µM
Out of some 290,000 compounds screened, about 3,000 (1%) were called active. Rule as the data show it: active = inhibition mostly above about 36% (no sharp cut-off); inactive = mostly below about 34%. The list comes from a sample in which actives are over-represented; it also holds close analogues and randomly drawn compounds.
Outcome codes: active, inactive

- COMPOUND: "Cc1ccc(C)c(S(=O)(=O)NCc2ccncc2)c1"
  GROUP LABEL: "inactive"
- COMPOUND: "Cc1[nH]nc2c1C(c1ccc3c(c1)OCO3)C(C#N)=C(N)O2 (stereo not given)"
  GROUP LABEL: "inactive"
- COMPOUND: "Cc1ccc(NCc2ccncc2)c(Br)c1"
  GROUP LABEL: "active"
- COMPOUND: "Cc1cc(C)cc(NCc2ccncc2)c1"
  GROUP LABEL: "inactive"
- COMPOUND: "CCOC(=O)C(CCc1nnc(N)s1)C(=O)OCC"
  GROUP LABEL: "inactive"

###

- MEASUREMENT DESCRIPTION: NOD1 signaling inhibitors, primary screen, cell-based, luminescence, uHTS (AID 1578);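 note: HEK-293T reporter cells stimulated with the NOD1 agonist gamma-tri-DAP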
- TEST SETTINGS: NOD1-driven NF-kB luciferase reporter cells, at 4 µM
Screen size: about 290,000 compounds; about 3,000 (1%) were called active. No stated cut-off is given here; in the data, active means inhibition mostly above about 36% (no sharp cut-off); inactive means mostly below about 34%. The entries come from a sample that favours actives as a whole.
Outcome codes: y = active, n = inactive

- MOLECULE: "COc1cc2c(cc1OC)C(c1ccc(-c3ccccc3Cl)o1)=NCC2"
  GROUP LABEL: "y"
- MOLECULE: "CCOC(=O)NC(=O)/C(C#N)=N\\Nc1cccc(Cl)c1"
  GROUP LABEL: "y"
- MOLECULE: "CN(CCCN1CCOCC1)C(=O)c1cc(COc2cccc(C(F)(F)F)c2)on1"
  GROUP LABEL: "n"
- MOLECULE: "O=C(c1ccc(Br)cc1)N(c1ccccn1)C1CCCCC1"
  GROUP LABEL: "n"
- MOLECULE: "Cc1cc(-c2n[nH]c(=S)n2-c2ccc(C)c(C)c2)no1"
  GROUP LABEL: "y"
- MOLECULE: "CC(=O)N1N=C(c2ccco2)CC1c1cccs1 (stereo unspecified)"
  GROUP LABEL: "n"
- MOLECULE: "Cc1nc2sc(C(N)=O)c(N)c2c(C)c1CC(=O)c1ccccc1"
  GROUP LABEL: "y"
- MOLECULE: "Cc1ccc(C2=NN(C(=O)CCC(=O)O)C(c3cccs3)C2)cc1 (stereo unspecified)"
  GROUP LABEL: "n"
- MOLECULE: "CC(C)NC(=S)N1CCN(Cc2ccc3c(c2)OCO3)CC1"
  GROUP LABEL: "n"
- MOLECULE: "Cc1cccc(NC(=O)c2cccc(NC(=O)c3ccccc3)c2)n1"
  GROUP LABEL: "n"
- MOLECULE: "O=C(O)CCC(=O)N1N=C(c2ccco2)CC1c1cccs1 (stereo unspecified)"
  GROUP LABEL: "n"
- MOLECULE: "O=C1CCCCN1CCC(=O)N1CCCC(N2CCN(c3ccccc3)CC2)C1 (stereo unspecified)"
  GROUP LABEL: "n"
- MOLECULE: "O=C(NCc1nnc(SCC(=O)N2CCCC2)o1)c1ccccc1"
  GROUP LABEL: "n"
- MOLECULE: "CCOC(=O)N1CCC(Nc2c(Nc3cccc(CC)c3)c(=O)c2=O)CC1"
  GROUP LABEL: "n"
- MOLECULE: "O=C1CCc2cc(S(=O)(=O)N3CCN(c4cccc(C(F)(F)F)c4)CC3)ccc2N1"
  GROUP LABEL: "n"
- MOLECULE: "COc1ccccc1N1CCN(CCC(=O)Nc2cccc(Cl)c2)CC1"
  GROUP LABEL: "n"
- MOLECULE: "Cc1ccc(C2CC(c3cccs3)=NN2C(=O)CCl)cc1 (stereo unspecified)"
  GROUP LABEL: "y"
- MOLECULE: "CCOC(=O)c1[nH]c(C)c(C(=O)OCC)c1C"
  GROUP LABEL: "n"
- MOLECULE: "C=CCN=C1NN=C(c2ccc3c(c2)OCCO3)CS1"
  GROUP LABEL: "y"
- MOLECULE: "Cc1ccc(-n2c(-c3ccncc3)n[nH]c2=S)cc1C"
  GROUP LABEL: "n"
- MOLECULE: "COC(=O)C1C(=O)c2c(n[nH]c2C)CC1(C)C (stereo unspecified)"
  GROUP LABEL: "n"
- MOLECULE: "C=C1/C(=C\\C=C2/CCC[C@]3(C)[C@@H]([C@H](C)CCCC(C)(C)O)CC[C@@H]23)C[C@@H](O)C[C@@H]1O"
  GROUP LABEL: "y"
- MOLECULE: "CCCc1n[nH]c2c1C(=O)C(C(=O)OC)C(C)(C)C2 (stereo unspecified)"
  GROUP LABEL: "n"
- MOLECULE: "CCCc1cc(C(=O)Nc2cc(C)nn2-c2ccccc2)no1"
  GROUP LABEL: "n"
- MOLECULE: "CCN1CCN(CC(=O)N2N=C(c3cccs3)CC2c2ccc(C)cc2)C(=O)C1=O (stereo unspecified)"
  GROUP LABEL: "n"
- MOLECULE: "Cc1ccc(C(=O)c2no[n+]([O-])c2C(=O)c2ccc(C)cc2)cc1"
  GROUP LABEL: "n"
- MOLECULE: "Fc1ccccc1Cc1nnc2n1N=C(c1ccc(Cl)cc1)CS2"
  GROUP LABEL: "n"
- MOLECULE: "COC(=O)C1C(=O)c2c(C)noc2CC1(C)C (stereo unspecified)"
  GROUP LABEL: "y"
- MOLECULE: "COc1ccc(N=C2NN=C(c3ccc4c(c3)OCCO4)CS2)cc1"
  GROUP LABEL: "n"
- MOLECULE: "CCC(=O)N1N=C(c2cccs2)CC1c1ccc(C)cc1 (stereo unspecified)"
  GROUP LABEL: "n"
- MOLECULE: "c1ccc(C2=NNC(=NC3CC3)SC2)cc1"
  GROUP LABEL: "n"

###

- MEASUREMENT DESCRIPTION: NOD1 signaling inhibitors, primary screen, cell-based, luminescence, uHTS (AID 1578);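 note: HEK-293T reporter cells stimulated with the NOD1 agonist gamma-tri-DAP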
- TEST SETTINGS: NOD1-driven NF-kB luciferase reporter cells, at 4 µM, hits give high values
Out of some 290,000 compounds screened, about 3,000 (1%) were called active. Many of the other results were omitted from the sample, so actives are more common in it than they were.

- QUERY SMILES: "COc1cc(C(=O)OCC(=O)Nc2ccc(F)cc2F)cc(OC)c1OC"
  inhibition [%]: 3.5
- QUERY SMILES: "Cc1ccc(NC(=O)c2cc3ccccc3o2)cc1S(=O)(=O)N(C)C"
  inhibition [%]: -60.5
- QUERY SMILES: "Cc1ccc(S(=O)(=O)NC(=NC2CCCCC2)c2ccc(F)cc2)cc1"
  inhibition [%]: -31.6
- QUERY SMILES: "O=C(O)c1ccc(N/N=C/c2ccc3c(c2)OCO3)cc1"
  inhibition [%]: 80.4
- QUERY SMILES: "O=C(O)c1ccc(N/N=C/c2ccc(-c3ccccc3)cc2)cc1"
  inhibition [%]: -27
- QUERY SMILES: "COC(=O)c1ccc(COc2ccc(/C=C/C(=O)c3ccc(OC)c(CSCC(=O)O)c3)cc2OC)cc1"
  inhibition [%]: 49.5
- QUERY SMILES: "NC(=S)NNc1ccnc2cc(Cl)ccc12"
  inhibition [%]: -8.6
- QUERY SMILES: "COc1ccccc1NS(=O)(=O)c1cc(NC(=O)c2cc3ccccc3oc2=O)ccc1C"
  inhibition [%]: 42.3
- QUERY SMILES: "CC(=O)c1cnc2nc(SCc3ccccc3)nn2c1C"
  inhibition [%]: -36
